RUN_DESCRIPTION: melting temperature; fluorescence melt of hairpins on a sequencing array, two-state fit, raised by 9.35 °C to match UV melts
TEST_SETTINGS: sodium 0.088 M
Listed next: entries and their corresponding Tm.
VALUE_TYPE: Tm (°C)

CONSTRUCT_SEQUENCE: GTACTAGGAAACTGGTAC ((((.((....)).))))
READOUT_NUMBER: 42.2

CONSTRUCT_SEQUENCE: GATCCTGCCAAGGATC ((((((....))))))
READOUT_NUMBER: 65.6

CONSTRUCT_SEQUENCE: GCAACAGGAAACTGTTGC (((((((....)))))))
READOUT_NUMBER: 68.5

CONSTRUCT_SEQUENCE: GCTTGAGGAAACCCAAGC (((((.(....).)))))
READOUT_NUMBER: 46

CONSTRUCT_SEQUENCE: GTAAGGGAAACCTTAC ((((((....))))))
READOUT_NUMBER: 48

CONSTRUCT_SEQUENCE: GGCCCCGAAAGGGAGCC ((((((....))).)))
READOUT_NUMBER: 68.4

CONSTRUCT_SEQUENCE: GATCATTTGCATGATC ((((((....))))))
READOUT_NUMBER: 46.4

CONSTRUCT_SEQUENCE: GCCGTTGGAAACGACGGC (((((.(....).)))))
READOUT_NUMBER: 66.1

CONSTRUCT_SEQUENCE: GTGGTCGAAAGACAACAC ((((((....)))..)))
READOUT_NUMBER: 46.8

CONSTRUCT_SEQUENCE: GATGGTGGAAACACTATC (((.(((....))).)))
READOUT_NUMBER: 43.1

CONSTRUCT_SEQUENCE: GGAGTAGGAAACTGCTTC (.((.((....)).)).)
READOUT_NUMBER: 41.4

CONSTRUCT_SEQUENCE: GCAGTTCGAAAGAAGTGC (((.(((....))).)))
READOUT_NUMBER: 56.2

====

RUN_DESCRIPTION: folding enthalpy; higher = less favourable; fluorescence melt of hairpins on a sequencing array, two-state fit
TEST_SETTINGS: sodium 0.088 M
Please note: rule met applies when folding enthalpy is -30 kcal/mol or greater, and rule not met applies otherwise.

CONSTRUCT_SEQUENCE: GTTAAAGGAAACTTTAGC (.(((((....))))).)
CATEGORY: rule met
//
CONSTRUCT_SEQUENCE: GTAGTAGGAAACTACTGC (.(((((....))))).)
CATEGORY: rule met
//
CONSTRUCT_SEQUENCE: CGTATCGGAAACGACACG (((.(((....))).)))
CATEGORY: rule not met
//
CONSTRUCT_SEQUENCE: GATCCTGCCAGGATC ((((((...))))))
CATEGORY: rule not met
//
CONSTRUCT_SEQUENCE: GTGAGTGGAAACACCCAC (((.(((....))).)))
CATEGORY: rule not met
//
CONSTRUCT_SEQUENCE: GATCATGTGAATGATC ((((((....))))))
CATEGORY: rule not met
//
CONSTRUCT_SEQUENCE: GGGTGCGGAAACACACCC (((((.(....).)))))
CATEGORY: rule not met
//
CONSTRUCT_SEQUENCE: GGAGTCGAAAGACGTTCC ((((((....)))..)))
CATEGORY: rule met
//
CONSTRUCT_SEQUENCE: GTCCTAACGAAAGTTGAC (((..(((....))))))
CATEGORY: rule met
//
CONSTRUCT_SEQUENCE: GCACGTGGAAACATGTGC ((((.((....)).))))
CATEGORY: rule not met
//
CONSTRUCT_SEQUENCE: GTAATGGGAAACCATTGC (.(((((....))))).)
CATEGORY: rule met
//
CONSTRUCT_SEQUENCE: GATCGTTGGGACGATC ((((((....))))))
CATEGORY: rule not met
